- target: T1, N-terminally HA-tagged chimeric TM4SF20 version 2 expressed on CHO DG44 cells (chimeric TM4SF20 ver.2_CHO) (human TM4SF20 with the second loop …)
- T1 construct: also called chimeric TM4SF20 ver.2_ntHA
- T1 chain: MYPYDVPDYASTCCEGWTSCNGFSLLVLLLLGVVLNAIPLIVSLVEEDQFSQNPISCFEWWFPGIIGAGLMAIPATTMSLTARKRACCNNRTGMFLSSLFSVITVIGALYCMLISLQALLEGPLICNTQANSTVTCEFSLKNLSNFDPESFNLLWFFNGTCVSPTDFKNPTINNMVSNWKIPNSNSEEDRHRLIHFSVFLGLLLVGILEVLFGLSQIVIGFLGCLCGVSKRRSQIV
- experimentNotes: flow cytometry, hybridoma culture supernatant on chimeric TM4SF20 ver.2_CHO cells
metricName: binding result

- anti-TM4SF20 antibody C7 (antibody, mouse IgG1, V domains shown, also called clone C7) VH: QVQLKESGPDLVQPSQTLSLTCTVSGFSLSSYGVHWVRQPPGKGLEWVGTMGWDDKKYYNSALNSRLSLSRDTSKNQVFLKLSSLQTEDTAMYYCTRDYYSDGSFAYWGQGTLVTVSA VL: DVLMTQTPLSLPVSLGDQASISCKSSQSIVHSDGNTYLQWYLQKPGQSPKLLIYKVSNRFSGVPDRFSGSGSGTDFTLKISRVEAEDLGIYYCFQGSHVPPTFGTGTKLEIK: no binding
- anti-TM4SF20 antibody B11 (antibody, mouse IgG1, V domains shown, also called clone B11) VH: EVQLQQSGPELVKPGASVKMSCKASGYRFTNYVMHWVKQKPGQGLEWIGYINPYNAGTKYNEKFKGKATLTSDKSSSTAYMELSSLTSEDSAVYYCARGAGWSLRFADWGQGTLVTVSA VL: DILMTQSPSSMSVSLGDTVSITCHASQGISSNIGWLQQKPGKSFKGLIYLATNLEDGVPSRFSGSGSGADYSLTITSLESEDFAVYYCVQYSQFPRTFGGGTKLEIK: no binding
- anti-TM4SF20 antibody B8 (antibody, mouse IgG2b, V domains shown, also called clone B8) VH: RVQLKESGPDLVQPSQTLSLTCTVSGFSLTNYGVHWIRQPPGKGLEWVGTVGWDDKKYYNSVLKSRLSINRDTSKNQVFLKLSSLQTEDTAMYYCTPYYDGSPYVMDYWGQGTSVTVSS VL: DIVMSQSPSSLAVSAGEKVTMTCKSSQSLFDSGTRKNYLAWYQQKPGQSPKLLIYWASTRESGVPDRFTGSGSGTDFTLTISSVQAEDLAVYYCKQSYYLLTFGAGTKLELK: no binding

Data origin, for the record: patent US20120004117A1
